- Test system: A. fumigatus ATCC 13073
- test-method-notes: MEC assay (Example 31)
- Format: cell-based
- test-context: RPMI pH 7.0, 35° C., 24-48 hr
Readings of MEC for the listed compounds

Some solved cases for reference:
C[C@@H](c1ncncc1F)[C@](O)(Cn1cncn1)c1ccc(F)cc1F [voriconazole, reference compound] : 0.012-0.5^ μg/mL
CC[C@H](C)C[C@H](C)CCCCCCCCC(=O)N[C@H]1C[C@@H](O)[C@@H](NCCN)NC(=O)[C@@H]2[C@@H](O)CCN2C(=O)[C@H]([C@H](O)CCNC(=O)[C@H](Cc2ccccc2)NC(=O)[C@H](CC(C)C)NC(=O)[C@H](CCSC)NC=O)NC(=O)[C@H]([C@H](O)[C@@H](O)c2ccc(O)cc2)NC(=O)[C@@H]2C[C@@H](O)CN2C(=O)[C@H]([C@@H](C)O)NC1=O : 0.12 to 2 µg/mL

Recorded result, CC[C@H](C)C[C@H](C)CCCCCCCCC(=O)N[C@H]1C[C@@H](O)[C@@H](OCCNC(=O)CCNC(=O)[C@H](Cc2ccccc2)NC(=O)[C@H](CC(C)C)NC(=O)[C@H](CCSC)NC=O)NC(=O)[C@@H]2[C@@H](O)CCN2C(=O)[C@H]([C@H](O)CCN)NC(=O)[C@H]([C@H](O)[C@@H](O)c2ccc(O)cc2)NC(=O)[C@@H]2C[C@@H](O)CN2C(=O)[C@H]([C@@H](C)O)NC1=O , MEC: 0.06 to 0.12 µg/mL

---

- Test system: C. parapsilosis ATCC 22019
- test-method-notes: microbe, parasite or virus in culture
- Format: cell-based
- test-context: ATCC 22019, pH 7
Readings of MIC for the listed compounds

Some solved cases for reference:
CC[C@H](C)C[C@H](C)CCCCCCCCC(=O)N[C@H]1C[C@@H](O)[C@@H](OCCNC(=O)[C@H](Cc2ccccc2)NC(=O)[C@H](CC(C)C)NC(=O)[C@H](CCSC)NC=O)NC(=O)[C@@H]2[C@@H](O)CCN2C(=O)[C@H]([C@H](O)CCN)NC(=O)[C@H]([C@H](O)[C@@H](O)c2ccc(O)cc2)NC(=O)[C@@H]2C[C@@H](O)CN2C(=O)[C@H]([C@@H](C)O)NC1=O : 8 to 16 µg/mL
CC[C@H](C)C[C@H](C)CCCCCCCCC(=O)N[C@H]1C[C@@H](O)[C@@H](NCCN)NC(=O)[C@@H]2[C@@H](O)CCN2C(=O)[C@H]([C@H](O)CCNC(=O)[C@H](CO)NC(=O)[C@H](CC(C)C)NC(=O)[C@H](CCSC)NC=O)NC(=O)[C@H]([C@H](O)[C@@H](O)c2ccc(O)cc2)NC(=O)[C@@H]2C[C@@H](O)CN2C(=O)[C@H]([C@@H](C)O)NC1=O : >32 µg/mL
CC[C@H](C)C[C@H](C)CCCCCCCCC(=O)N[C@H]1C[C@@H](O)[C@@H](NCCN)NC(=O)[C@@H]2[C@@H](O)CCN2C(=O)[C@H]([C@H](O)CCNC(=O)CCC(=O)NCCOCCOCCNC(=O)[C@H](Cc2ccccc2)NC(=O)[C@H](CC(C)C)NC(=O)[C@H](CCSC)NC=O)NC(=O)[C@H]([C@H](O)[C@@H](O)c2ccc(O)cc2)NC(=O)[C@@H]2C[C@@H](O)CN2C(=O)[C@H]([C@@H](C)O)NC1=O : >32 µg/mL
CC[C@H](C)C[C@H](C)CCCCCCCCC(=O)N[C@H]1C[C@@H](O)[C@@H](NCCN)NC(=O)[C@@H]2[C@@H](O)CCN2C(=O)[C@H]([C@H](O)CCNC(=O)CCNC(=O)[C@H](Cc2ccccc2)NC(=O)[C@H](CC(C)C)NC(=O)[C@H](CCSC)NC=O)NC(=O)[C@H]([C@H](O)[C@@H](O)c2ccc(O)cc2)NC(=O)[C@@H]2C[C@@H](O)CN2C(=O)[C@H]([C@@H](C)O)NC1=O : >32 µg/mL

Recorded result, CC[C@H](C)C[C@H](C)CCCCCCCCC(=O)N[C@H]1C[C@@H](O)[C@@H](NCCNC(=O)CCNC(=O)[C@H](Cc2ccccc2)NC(=O)[C@H](CC(C)C)NC(=O)[C@H](CCSC)NC(=O)OCC(C)C)NC(=O)[C@@H]2[C@@H](O)CCN2C(=O)[C@H]([C@H](O)CCN)NC(=O)[C@H]([C@H](O)[C@@H](O)c2ccc(O)cc2)NC(=O)[C@@H]2C[C@@H](O)CN2C(=O)[C@H]([C@@H](C)O)NC1=O , MIC: >16 µg/mL
